Entry source: ChEMBL document CHEMBL1138329

- Tested on: Mus musculus
- assay-details: Toxicity in ip dosed CD1 mouse
- Format: organism-based
- condition-label: in vivo
property: MTD (µmol/kg)
One number for each entry, in µmol/kg.

1. Cc1ccc2c(c1)[n+]([O-])c(NCCN1CCOCC1)n[n+]2[O-] : 1000
2. Cc1ccc2c(c1)[n+]([O-])c(NCCN1CCCCC1)n[n+]2[O-] : 237
3. CCCN(CCC)CCNc1n[n+]([O-])c2ccccc2[n+]1[O-] : 316
4. CN(C)CCNc1n[n+]([O-])c2ccc(C(C)(C)C)cc2[n+]1[O-] : 421
5. COc1ccc2c(c1)[n+]([O-])c(NCCN(C)C)n[n+]2[O-] : 1000
6. Cc1ccc2c(c1)[n+]([O-])c(NCCN(C)C)n[n+]2[O-] : 562

Now let's try a different one.
Provide value of MTD for this record tested with Mus musculus: COc1ccc2c(c1)[n+]([O-])c(NCCN1CCCCC1)n[n+]2[O-]
421
